System: RXF 393 renal
Assay: NCI-60 one-dose screen, 48 h
Settings: 10 µM unless noted
Compounds without any hit were thinned out: in the full panel of roughly 83,000, 20% have a hit. Active and inactive are the calls of the source. Rule for the calls: active = growth percent below 10; inactive = the rest.
Your reply should match one of these outcome classes. active, inactive

molecule: C#C[C@]1(O)CC[C@H]2[C@@H]3CC=C4c5sc(N6CCN(C)CC6)nc5CC[C@]4(C)[C@H]3CC[C@@]21C
classification: active
//
molecule: COc1ccc(/C=N\NC(=O)c2cnn(CC(O)c3ccccc3)c2N)cc1OCc1ccc(Cl)cc1 (configuration not stated)
classification: inactive
//
molecule: Clc1cccc(/C=N/Nc2nc(N/N=C/c3cccc(Cl)c3)nc(N3CCOCC3)n2)c1
classification: inactive
//
molecule: O=C1Nc2cc(Cl)ccc2/C1=C\c1ccc(OCc2ccccc2)cc1
classification: inactive
//
molecule: CCCCCCCCCCCC(=O)NC(C)(C)C(=O)N1CCCC1C(=O)NC(C)(C)C(=O)NC(C)(C)C(=O)N1CCCC1C(=O)NC(C)(C)C(=O)NC(C)(C)C(=O)N1CCCC1C(=O)NC(C)C(=O)NCCC(=O)NC(C)C(=O)NC(C)(C)C(=O)NC(C)(C)C(=O)NC(C)(C)C(=O)NCCC(=O)NC(C)(C)C(=O)NC(C)(C)C(=O)NC(C)(C)C(=O)NC(C)C(=O)NCCC(=O)O (configuration not stated)
classification: active

Could you now look at the following molecule, please?
// query I'd appreciate the recorded outcome for CC(=O)OC[C@]12CC[C@@H](C(=O)/C=C/c3cccnc3)[C@@H]1[C@H]1CC[C@@H]3[C@@]4(C)CC[C@H](OC(C)=O)C(C)(C)[C@@H]4CC[C@@]3(C)[C@]1(C)CC2 from this test.
// result active

* * *

Tested on: 786-0 renal
Experiment: NCI-60 one-dose screen, 48 h (100 = growth as untreated, 0 = no growth, -100 = all killed)
Conditions: 10 µM unless noted
Procedure: Cells are grown in 96 well plates and exposed to the test compound for 48 hours. Compounds are tested at a single concentration, which is 10^-5 M for most compounds. The reported endpoint is percent growth (GI% or GIPRCNT), where numbers from 0 - 100% represent growth inhibition, and numbers from -100% - 0 represent cell death. For example, a value of 40 represents 60% growth inhibition. A value of 0 means no net growth occurred over the course of the experiment. […]
This is part of a sample that, as a whole, favours compounds with a hit. Of some 83,000 tested, about 20% had one in any assay.
measured.quantity: growth (%)
Value expressed in %; do not type the unit.

Example results:
cpd.smiles: C=C(C)[C@@H]1CC[C@]2(COP(=O)(OCC)OCC)CC[C@]3(C)[C@H](CC[C@@H]4[C@@]5(C)CC[C@H](OP(=O)(OCC)OCC)C(C)(C)[C@@H]5CC[C@]43C)[C@@H]12
measured.quantity: growth
recorded.result: 72.8
//
cpd.smiles: O=C(CSc1nc2ccccc2c(=O)n1-c1ccccc1)N/N=C/c1ccc(Oc2ccc(Br)cc2)cc1
measured.quantity: growth
recorded.result: 46
//
cpd.smiles: COc1ccc(OC)c(NC(=O)CCCCCCNC(=O)C(O)(O)C(F)(F)F)c1
measured.quantity: growth
recorded.result: 50
//
cpd.smiles: COc1ccc(N2CCN(C3=C(Cl)C(=O)c4ncccc4C3=O)CC2)cc1
measured.quantity: growth
recorded.result: 107
//
cpd.smiles: COc1cc(C(=O)c2cc(C(C)=O)c3cccc(C)n23)cc(OC)c1OC
measured.quantity: growth
recorded.result: 47.1

The recorded growth for COc1ccc2sc(NC(=O)CCCCCCNC(=O)C(O)(O)C(F)(F)F)nc2c1 is 13.1

Lab book: growth of Cc1ccsc1[C@H]1c2[nH]c3ccccc3c2C[C@H]2C(=O)N(CCCCCCC(=O)NO)CC(=O)N12 noted as 99.1

What the record says about O=C(/C=C/c1ccc(F)cc1)Nc1cccc2cccnc12 : growth is 108

The molecule listed as CN1CCN(c2ccc(Nc3nc(NCCCNS(=O)(=O)c4ccc(Cl)cc4)c4sccc4n3)cc2)CC1 shows growth equal to -43.2

growth reading for COc1ccc(C(C)=C(c2ccc(OCCN(C)C)cc2)c2ccc(OCCN(C)C)cc2)cc1 : -88.5
